Target: tau 4R2N (Homo sapiens, UniProt P10636-8 1-441)
Sequence (P10636 other isoform, or with tags, fused parts or gaps): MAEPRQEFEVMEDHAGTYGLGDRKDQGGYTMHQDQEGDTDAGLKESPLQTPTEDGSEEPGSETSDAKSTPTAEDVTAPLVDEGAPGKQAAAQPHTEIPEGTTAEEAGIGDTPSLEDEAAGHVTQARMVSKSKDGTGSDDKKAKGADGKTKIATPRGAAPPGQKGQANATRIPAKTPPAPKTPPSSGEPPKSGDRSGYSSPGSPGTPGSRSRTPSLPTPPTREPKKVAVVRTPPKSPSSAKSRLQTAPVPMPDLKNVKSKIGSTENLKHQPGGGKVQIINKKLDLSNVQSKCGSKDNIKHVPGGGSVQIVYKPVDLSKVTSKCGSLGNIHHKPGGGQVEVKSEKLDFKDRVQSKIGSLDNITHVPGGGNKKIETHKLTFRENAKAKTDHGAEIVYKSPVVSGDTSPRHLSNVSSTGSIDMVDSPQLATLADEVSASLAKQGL
Experiment: EMSA; Hill coefficient 2.6; EMSA: 100 mM sodium acetate pH 7.0, 0.5 mM EDTA, 0.5 mM MgCl2, 0.01% IGEPAL CA-630, RNase inhibitor, 37 C 10 min, TBE 8% gel; ITC: 20 mM ammonium acetate pH 7
Settings: protein: recombinant; chain copies: 2; label: 3' biotin kit RNA
Experimental endpoint: pKd
One number for each entry, as −log10 of the molar value.

The binder identified as CCUGGUUUUUAAGGAGUGUCGCCAGAGUGCCGCGAAUGAAAAA (ssRNA) [RNA43] registered its pKd at 6.08
